Items are presented alongside their recorded yeast fitness.
B1: tRNA (parent)
chain: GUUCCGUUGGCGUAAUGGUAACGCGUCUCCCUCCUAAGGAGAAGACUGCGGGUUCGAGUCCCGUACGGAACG

Variants of: B1
Assay: yeast fitness relative to wild type (ratio to wild type); higher = fitter; tRNA-Arg(CCU), competitive growth, 37 C, YPD
Variants at the floor of the assay were thinned out.
Number only, please.

- sequence code: "GUUCCCUUGGCGUAAUGGUAACGAGUCUCCCUCCUAAGGAGAAGAGUGCGGGUUCGAGUCCCGUACGGAACG [G6C C24A C46G]"
  yeast fitness: 0.59
- sequence code: "GUUCCGUUGGCGUAAUGGUCACGCGUUUCCCUCGUAAGGAGAAGACUGCGGGUUCGAGUCUGGUACGGAACG [A20C C27U C34G C61U C62G]"
  yeast fitness: 0.616
- sequence code: "GUUCCGAUGACGUAAUGGUAACGCGUCUCCCUCCUAAGGAGAAGACUGCGGGUUCGAGUUCCGUACGGAACG [U7A G10A C60U]"
  yeast fitness: 0.607

Query (variant): GUGCCGUUGGCGUAAUGGUAACGCGUCUCCCUCCUAAGGAGAGGACUGCGGGUUCAAGUCCCGUACGGAACG [U3G A43G G56A] ; field requested: yeast fitness
0.601
